Test system: NOMO1
Assay: cell viability relative to DMSO control; higher = less cytotoxic
Settings: HPLM + 10% dialyzed FBS; 48 h; 46.1 µM
# cell viability per entry
Could you give me the number in %? Just the number is fine.

Use these answered entries as a reference point.
CC(C)C[C@H](CN)CC(=O)O | 91.7
COc1cc2nccc(Oc3ccc(NC(=O)Nc4cc(C)on4)c(Cl)c3)c2cc1OC | 87.8
NC(=O)N1c2ccccc2CC(=O)c2ccccc21 | 163
Fc1cc(-c2cccc3ncc(-c4cnn(C5CCNCC5)c4)nc23)cc(F)c1CN1CCOCC1 | 16.1

Okay, next one:
Query: cell viability; subject: CC#C[C@]1(O)CC[C@H]2[C@@H]/3CCC/4=C/C(=O)CCC4=C3[C@H](C[C@]12C)C5=CC=C(C=C5)N(C)C
6.71

###

# cell viability per entry
Test system: P12-Ichikawa
Test: cell viability relative to DMSO control; higher = less cytotoxic
Settings: HPLM + 10% dialyzed FBS; 48 h; 1.71 µM
Could you give me the number in %? Just the number is fine.

Query: cell viability; subject: Cc1cc2c(C(C)C)c(O)c(O)c(C=O)c2c(O)c1-c1c(C)cc2c(C(C)C)c(O)c(O)c(C=O)c2c1O
104

Query: cell viability; subject: Clc1cccc(-c2nnnn2Cc2cccnc2)c1Cl
74.1

Query: cell viability; subject: COc1ccc(Cc2nccc3cc(OC)c(OC)cc23)cc1OC
116

Query: cell viability; subject: CN(N=O)C(=O)N[C@H]1C(O)OC(CO)[C@@H](O)[C@@H]1O (stereo not given in full)
82.8

Query: cell viability; subject: OC[C@H]1O[C@@H](Oc2ccc(O)cc2)[C@H](O)[C@@H](O)[C@@H]1O
101

Query: cell viability; subject: CC1(C)[C@@H](O[C@H]2O[C@H](C(=O)O)[C@@H](O)[C@H](O)[C@H]2O[C@@H]2O[C@H](C(=O)O)[C@@H](O)[C@H](O)[C@H]2O)CC[C@]2(C)[C@H]3C(=O)C=C4[C@@H]5C[C@@](C)(C(=O)O)CC[C@]5(C)CC[C@@]4(C)[C@]3(C)CC[C@@H]12
128

###

Test system: SEM cells
Experiment: cell viability relative to DMSO control; higher = less cytotoxic
Details: HPLM + 10% dialyzed FBS; 48 h; 5.12 µM
# cell viability per entry
// unit must come after the numeric part

CC1(C)[C@@H](O[C@H]2O[C@H](C(=O)O)[C@@H](O)[C@H](O)[C@H]2O[C@@H]2O[C@H](C(=O)O)[C@@H](O)[C@H](O)[C@H]2O)CC[C@]2(C)[C@H]3C(=O)C=C4[C@@H]5C[C@@](C)(C(=O)O)CC[C@]5(C)CC[C@@]4(C)[C@]3(C)CC[C@@H]12 | 150%

Query: cell viability; subject: ClC1=CC=C(CCCOC/2=N/NC(=O)C(=C2NCC3=CN=CC=C3)/Br)C=C1
32.7%

Query: cell viability; subject: CC(C)OC(=O)CCC/C=C\C[C@@H]1[C@@H](/C=C/[C@@H](O)COc2cccc(C(F)(F)F)c2)[C@H](O)C[C@@H]1O
106%

###

# cell viability per entry
System: NOMO1
Experiment: cell viability relative to DMSO control; higher = less cytotoxic
Conditions: HPLM + 10% dialyzed FBS; 48 h; 0.00702 µM
Could you give me the number in %? Just the number is fine.

Use these answered entries as a reference point.
Cl.c1cnc2cc3c(cc2n1)C1CNCC3C1 | 110
CN(C)Cc1ccc(-c2nc3cccc4c3n2CCNC4=O)cc1 | 115
O=C(O)[C@H](Cc1c[nH]c2ccccc12)N1C(=O)c2ccccc2C1=O | 103

Query: cell viability; subject: C[N]1C=NC=C1[C@@](N)(C2=CC=C(Cl)C=C2)C3=CC=C4N(C)C(=O)\C=C(\C5=CC=CC(=C5)Cl)C4=C3
112

Query: cell viability; subject: Nc1ccccc1NC(=O)c1ccc(CNc2nccc(-c3cccnc3)n2)cc1
117

###

Tested on: NOMO1
Test: cell viability relative to DMSO control; higher = less cytotoxic
Settings: RPMI 5 mM glucose + 10% dialyzed FBS; 48 h; 46.1 µM
# cell viability per entry
Could you give me the number in %? Just the number is fine.

COc1cc2nccc(Oc3ccc(NC(=O)Nc4ccc(F)cc4F)c(F)c3)c2cc1OC | 54.6
CO/N=C(/C(=O)N[C@@H]1C(=O)N2C(C(=O)O)=C(Cn3ccc(=N)n3CCO)CS[C@H]12)c1csc(N)n1 | 134
O=C(NC1CCNCC1)c1n[nH]cc1NC(=O)c1c(Cl)cccc1Cl | 3.85
CN1CCCN(C(=O)c2cccc(-c3ccc(/C=C4/C(=O)Nc5ccc(Cl)cc54)o3)c2)CC1 | 60
Cc1ccc(NC(=O)C2(c3ccc4c(c3)OC(F)(F)O4)CC2)nc1-c1cccc(C(=O)O)c1 | 4.48

Okay, next one:
Query: cell viability; subject: Cl.c1cnc2cc3c(cc2n1)C1CNCC3C1
62.8

###

System: SEM cells
Assay: cell viability relative to DMSO control; higher = less cytotoxic
Conditions: RPMI 5 mM glucose + 10% dialyzed FBS; 48 h; 5.12 µM
# cell viability per entry
Could you give me the number in %? Just the number is fine.

Use these answered entries as a reference point.
CC(C)(C)/[N+]([O-])=C/c1ccc([S+](=O)([O-])[O][Na])cc1[S+](=O)([O-])[O][Na] | 113
O=C(NC1CCOCC1)c1ccc(-c2cc(-c3c[nH]nc3-c3ccccn3)ccn2)cc1 | 113

Okay, next one:
Query: cell viability; subject: CC1SC/2=C(C(O)=O)/C(=O)C3=CC(=C(C=C3N12)N4CCN(CC4)C\C5=C(C)\OC(=O)O5)F (stereo not drawn)
115

###

System: NOMO1
Assay: cell viability relative to DMSO control; higher = less cytotoxic
Settings: RPMI 5 mM glucose + 10% FBS; 48 h; 0.000781 µM
# cell viability per entry
Could you give me the number in %? Just the number is fine.

Use these answered entries as a reference point.
Nc1nc(-c2nn(Cc3ccccc3F)c3ncccc23)nc(N)c1N1CCOCC1 | 88.5
Cc1ccc(C(C)(O)c2nc3ccccc3s2)c(C)c1 (stereo unspecified) | 95.7

// map CNC(=O)c1cccc(-c2ccc3c(N4CCOC[C@@H]4C)nc(N4CCOC[C@@H]4C)nc3n2)c1 to recorded cell viability (system: NOMO1)
98.3

// map COc1nc(-c2ccc3c(c2)OCO3)n(-c2ccc(NC(=O)CSc3ccccc3)cc2)n1 to recorded cell viability (system: NOMO1)
105

// map Cc1cc(Nc2ncc(Cl)c(Nc3ccccc3[S+](=O)([O-])C(C)C)n2)c(OC(C)C)cc1C1CCNCC1 to recorded cell viability (system: NOMO1)
126

// map Clc1cccc(-c2nnnn2Cc2cccnc2)c1Cl to recorded cell viability (system: NOMO1)
80

###

System: P12-Ichikawa
Experiment: cell viability relative to DMSO control; higher = less cytotoxic
Conditions: RPMI 5 mM glucose + 10% dialyzed FBS; 48 h; 0.0211 µM
readout name: cell viability (%)
Could you give me the number in %? Just the number is fine.

Query: cell viability; subject: COc1ccc(/C=C\c2cc(OC)c(OC)c(OC)c2)cc1O
14.9

Query: cell viability; subject: NC(=O)c1ccc(-c2nc(-c3ccc4c(c3)OCCO4)c(-c3ccccn3)[nH]2)cc1
126

Query: cell viability; subject: O=C(NC1CCOCC1)c1ccc(-c2cc(-c3c[nH]nc3-c3ccccn3)ccn2)cc1
105

Query: cell viability; subject: ClC1=CC=C(CCCOC/2=N/NC(=O)C(=C2NCC3=CN=CC=C3)/Br)C=C1
110

Query: cell viability; subject: CN(C)Cc1ccc(-c2nc3cccc4c3n2CCNC4=O)cc1
109

Query: cell viability; subject: CN1C(=O)\C(=C/C(=C1/NC2=C(F)C=C(I)C=C2)C(=O)NOCCO)C
99.6

###

Tested on: NOMO1
Test: cell viability relative to DMSO control; higher = less cytotoxic
Settings: RPMI 5 mM glucose + 10% FBS; 48 h; 0.0211 µM
readout name: cell viability

Use these answered entries as a reference point.
COCCOC(=O)C/1=C(C)/NC/2=C(C1C3=CC=CC(=C3)O)/C(=O)CC(C2)C4=C(OC)C=CC=C4 (centres undefined) | 118%
CC#C[C@]1(O)CC[C@H]2[C@@H]/3CCC/4=C/C(=O)CCC4=C3[C@H](C[C@]12C)C5=CC=C(C=C5)N(C)C | 86.2%
Cc1cc2c(C(C)C)c(O)c(O)c(C=O)c2c(O)c1-c1c(C)cc2c(C(C)C)c(O)c(O)c(C=O)c2c1O | 109%

Query: cell viability; subject: CC(C)C[C@H](CN)CC(=O)O
97.8%

###

Test system: SEM cells
Experiment: cell viability relative to DMSO control; higher = less cytotoxic
Conditions: HPLM + 10% dialyzed FBS; 48 h; 0.0632 µM
readout name: cell viability (%)
Could you give me the number in %? Just the number is fine.

O=C1CSC(=O)N1C(CCc1ccncc1)COc1ccc(-c2cccc([N+](=O)[O-])c2)cc1 (stereo not drawn) | 118
O=C(NC1CCOCC1)c1ccc(-c2cc(-c3c[nH]nc3-c3ccccn3)ccn2)cc1 | 117

Okay, next one:
Query: cell viability; subject: O=C1\C=C(/OC2=C1C=CC=C2C3=CC=CC=C3)N4CCOCC4
65.1

Data origin, for the record: the supplement of paper PMC11451515
